# TEST NAME: Pharmacokinetic evaluation in mice
# Type: in vivo
# REPORTED CONDITIONS: mouse, plasma; male CD-1 mice; PO 2.5 mg/kg; read-out: AUC0-last (PO)
MEASURED ENDPOINT: AUC(0-t) (µM·h)
Give the value, in units of µM·h, as a plain number.

Return reported AUC(0-t). Input compound: Cn1cc(-c2cnc(CNc3nccn4c(-c5cc(F)cc(F)c5)cnc34)cn2)ccc1=O [Compound 2]
20.5

---

# TEST NAME: Toxicological evaluation (with toxicokinetics) of rats administered for 21 consecutive days
# REPORTED CONDITIONS: male, SD, rat, in vivo, po, 3 mg/kg/day, male, oral 3 mg/kg/day, Day 1
MEASURED ENDPOINT: Tmax (h)
Record the value in h, omitting the unit from your answer.

Note down Tmax recorded for Cn1cc(-c2cnc(CNc3nccn4c(-c5cc(F)cc(F)c5)cnc34)cn2)ccc1=O [Compound 2]
8

---

# TEST NAME: Toxicological evaluation (with toxicokinetics) of rats administered for 21 consecutive days
# REPORTED CONDITIONS: female, SD, rat, in vivo, po, 20 mg/kg/day, female, oral 20 mg/kg/day, Day 21
MEASURED ENDPOINT: Tmax (h)
Express the result in h but write the number alone.

Please supply the value of reported Tmax for the item "Cn1cc(-c2cnc(CNc3nccn4c(-c5cc(F)cc(F)c5)cnc34)cn2)ccc1=O"
8

---

# TEST NAME: Toxicological evaluation (with toxicokinetics) of rats administered for 21 consecutive days
# REPORTED CONDITIONS: male, SD, rat, in vivo, po, 10 mg/kg/day, male, oral 10 mg/kg/day, Day 21
MEASURED ENDPOINT: Cmax (µM)
Hi! Could you send only the number? It should be in µM, unit omitted.

Answer with the recorded Cmax for the molecule listed here: "Cn1cc(-c2cnc(CNc3nccn4c(-c5cc(F)cc(F)c5)cnc34)cn2)ccc1=O"
6.87

---

# TEST NAME: Pharmacokinetic evaluation in mice
# Assay type: in vivo
# REPORTED CONDITIONS: mouse, plasma; male CD-1 mice; IV 0.5 mg/kg
MEASURED ENDPOINT: clearance (mL/min/kg)
Form entry: value (mL/min/kg) — number only.

Retrieve clearance measured for "Cn1cc(-c2cnc(CNc3nccn4c(-c5cc(F)cc(F)c5)cnc34)cn2)ccc1=O" and print it.
5.37

---

# TEST NAME: Toxicological evaluation (with toxicokinetics) of rats administered for 21 consecutive days
# REPORTED CONDITIONS: female, SD, rat, in vivo, po, 10 mg/kg/day, female, oral 10 mg/kg/day, Day 21, read-out: AUC0-24 h
MEASURED ENDPOINT: AUC(0-t) (µM·h)
Numbers only here, please. The scale is µM·h.

Dear colleague, please send me the reported AUC(0-t) for "Cn1cc(-c2cnc(CNc3nccn4c(-c5cc(F)cc(F)c5)cnc34)cn2)ccc1=O" when you can.
144

---

# TEST NAME: Toxicological evaluation (with toxicokinetics) of rats administered for 21 consecutive days
# REPORTED CONDITIONS: female, SD, rat, in vivo, po, 3 mg/kg/day, female, oral 3 mg/kg/day, Day 21
MEASURED ENDPOINT: Cmax (µM)
Enter your answer as a number in µM; do not include the unit.

Look up and state reported Cmax for Cn1cc(-c2cnc(CNc3nccn4c(-c5cc(F)cc(F)c5)cnc34)cn2)ccc1=O [Compound 2]
4.18
